molecular target: Protein RecA (Mycobacterium tuberculosis, UniProt P9WHJ3); test: Fluorescence Cell-Free Homogeneous Dose Retest to Identify Inhibitors of RecA-Intein Splicing Activity. [Related pubchem assays (depositor defined):AID2097, AID2223, AID489010, AID492950]; type: functional
The source made the active and inactive calls.
measurement-name: EC50

Solved entries (count: 4):
>  <compound>
O=[N+]([O-])c1cc(S(=O)(=O)C(F)(F)F)ccc1Sc1nc2ccccc2s1

>  <tested-target>
Protein RecA (Mycobacterium tuberculosis, UniProt P9WHJ3)

>  <measurement-name>
EC50

>  <result>
0.249 µM (active)

$$$$
>  <compound>
COc1ccc(N2C(=O)/C(=C\c3ccco3)N=C2SCC(=O)NC(C)(C)C)cc1Cl

>  <tested-target>
Protein RecA (Mycobacterium tuberculosis, UniProt P9WHJ3)

>  <measurement-name>
EC50

>  <result>
20.7 µM (inconclusive)

$$$$
>  <compound>
N#C/C(=C\c1cc(Cl)c(OCc2ccc(Cl)cc2)c(Cl)c1)C(N)=O

>  <tested-target>
Protein RecA (Mycobacterium tuberculosis, UniProt P9WHJ3)

>  <measurement-name>
EC50

>  <result>
> 380 µM (inconclusive)

$$$$
>  <compound>
Cc1cc(C(=O)CCl)c(C)n1CCc1ccc(Cl)cc1

>  <tested-target>
Protein RecA (Mycobacterium tuberculosis, UniProt P9WHJ3)

>  <measurement-name>
EC50

>  <result>
7.32 µM (active)

$$$$

From here, focus on the item given below.
Query string: Tell me EC50 of O=C1/C(=C\c2cccc(O)c2O)SC(=S)N1Cc1ccccc1 when tested on Protein RecA (Mycobacterium tuberculosis, UniProt P9WHJ3).
Result string: 1.95 µM (active)

====

target: Alkaline phosphatase, tissue-nonspecific isozyme (Homo sapiens); assay: TNAP enzyme inhibition by screening hits, dose response, selectivity assay for mouse IAP inhibitor project, biochemical, human TNAP, uHTS hits (AID 488906); format: functional
Sequence (P05186 whole entry): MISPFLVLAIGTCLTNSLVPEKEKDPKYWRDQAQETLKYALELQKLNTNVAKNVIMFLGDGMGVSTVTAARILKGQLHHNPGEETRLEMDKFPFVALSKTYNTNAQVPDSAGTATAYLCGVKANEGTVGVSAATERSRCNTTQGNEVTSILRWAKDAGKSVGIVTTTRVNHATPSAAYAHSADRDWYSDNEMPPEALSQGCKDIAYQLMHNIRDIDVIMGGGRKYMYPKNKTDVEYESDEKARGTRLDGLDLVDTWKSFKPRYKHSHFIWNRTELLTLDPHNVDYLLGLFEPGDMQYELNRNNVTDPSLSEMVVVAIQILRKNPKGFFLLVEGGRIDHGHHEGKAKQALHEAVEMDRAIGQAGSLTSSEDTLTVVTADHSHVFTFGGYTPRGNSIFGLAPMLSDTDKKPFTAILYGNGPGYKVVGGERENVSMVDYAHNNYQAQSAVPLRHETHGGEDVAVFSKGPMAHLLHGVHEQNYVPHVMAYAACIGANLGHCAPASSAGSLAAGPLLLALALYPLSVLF
Calls of active or inactive are those of the source.
Respond with a class label; see 1.0 (active), 0.0 (inactive)

Query string: What did this assay record as the result for C[C@@H]1O[C@@H](O[C@H]2[C@H](O)[C@@H](O)[C@H](Oc3c(-c4ccc(O)c(O)c4)oc4cc(O)cc(O)c4c3=O)O[C@@H]2CO)[C@H](O)[C@H](O)[C@H]1O ?
Result string: 1.0

Query string: What did this assay record as the result for O=C1/C(=C\c2cccc(O)c2O)SC(=S)N1Cc1ccccc1 ?
Result string: 0.0

Query string: What did this assay record as the result for O=C(CN1CCN(c2ccccc2F)CC1)c1ccc(O)c(O)c1 ?
Result string: 1.0

Query string: What did this assay record as the result for Cn1nc([N+](=O)[O-])nc1S(C)(=O)=O ?
Result string: 1.0

====

molecular target: UniProt P9WQ59; experiment: Fluorescence polarization aasay to screen for inhibitors that compete for the binding of FadD28 to a bisubstrate Measured in Biochemical System Using Plate Reader - 2147-01_Inhibitor_Dose_CherryPick_Activity.; type: functional, Mycobacterium tuberculosis H37Rv
Sequence (P9WQ59 whole entry): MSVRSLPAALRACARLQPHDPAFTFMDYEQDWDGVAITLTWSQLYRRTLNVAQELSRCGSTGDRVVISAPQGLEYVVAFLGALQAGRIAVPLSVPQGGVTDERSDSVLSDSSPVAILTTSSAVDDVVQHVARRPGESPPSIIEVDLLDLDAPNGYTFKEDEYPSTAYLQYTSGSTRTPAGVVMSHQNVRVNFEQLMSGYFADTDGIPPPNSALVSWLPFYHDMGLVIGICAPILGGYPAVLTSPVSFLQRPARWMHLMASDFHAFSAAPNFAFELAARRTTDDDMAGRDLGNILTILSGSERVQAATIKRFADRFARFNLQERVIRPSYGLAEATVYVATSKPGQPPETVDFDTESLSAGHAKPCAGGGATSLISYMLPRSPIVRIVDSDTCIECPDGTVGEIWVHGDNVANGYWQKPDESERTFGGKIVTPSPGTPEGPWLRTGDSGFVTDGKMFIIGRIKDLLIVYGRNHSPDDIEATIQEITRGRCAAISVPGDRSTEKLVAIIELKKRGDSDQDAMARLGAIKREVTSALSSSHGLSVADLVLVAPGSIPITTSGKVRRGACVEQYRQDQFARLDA
Active and inactive are the calls of the source.
Respond with a class label; see Yes = active, No = inactive

>  <compound>
Cc1cccc(C(=O)NNC(=O)c2ccc(NS(=O)(=O)c3cccs3)cc2)c1C

>  <classification>
Yes

$$$$
>  <compound>
CC(=O)c1cccc(NC(=O)NC2CCCCCCC2)c1

>  <classification>
No

$$$$
>  <compound>
CCCn1nc(NS(=O)(=O)c2cccc3nonc23)c2cc3cccc(C)c3nc21

>  <classification>
No

$$$$
>  <compound>
CSc1ncc(Cl)c(C(=O)Nc2nnc(SC/C=C/c3ccccc3)s2)n1

>  <classification>
No

$$$$

# ---- query compound ----
Query string: What did this assay record as the result for O=C(O)CCc1ccc(-c2ccc(Cl)cc2)n1Cc1ccco1 ?
Result string: Yes

====

target: Aminopeptidase N (Plasmodium falciparum FcB1/Columbia); assay: malaria alanyl aminopeptidase activity blockers – biochemical, fluorogenic H-Leu-NHMec substrate, 1536-well (AID 1445); set-up: species or system Plasmodium falciparum 3D7, 3D7
Sequence (O96935 whole entry): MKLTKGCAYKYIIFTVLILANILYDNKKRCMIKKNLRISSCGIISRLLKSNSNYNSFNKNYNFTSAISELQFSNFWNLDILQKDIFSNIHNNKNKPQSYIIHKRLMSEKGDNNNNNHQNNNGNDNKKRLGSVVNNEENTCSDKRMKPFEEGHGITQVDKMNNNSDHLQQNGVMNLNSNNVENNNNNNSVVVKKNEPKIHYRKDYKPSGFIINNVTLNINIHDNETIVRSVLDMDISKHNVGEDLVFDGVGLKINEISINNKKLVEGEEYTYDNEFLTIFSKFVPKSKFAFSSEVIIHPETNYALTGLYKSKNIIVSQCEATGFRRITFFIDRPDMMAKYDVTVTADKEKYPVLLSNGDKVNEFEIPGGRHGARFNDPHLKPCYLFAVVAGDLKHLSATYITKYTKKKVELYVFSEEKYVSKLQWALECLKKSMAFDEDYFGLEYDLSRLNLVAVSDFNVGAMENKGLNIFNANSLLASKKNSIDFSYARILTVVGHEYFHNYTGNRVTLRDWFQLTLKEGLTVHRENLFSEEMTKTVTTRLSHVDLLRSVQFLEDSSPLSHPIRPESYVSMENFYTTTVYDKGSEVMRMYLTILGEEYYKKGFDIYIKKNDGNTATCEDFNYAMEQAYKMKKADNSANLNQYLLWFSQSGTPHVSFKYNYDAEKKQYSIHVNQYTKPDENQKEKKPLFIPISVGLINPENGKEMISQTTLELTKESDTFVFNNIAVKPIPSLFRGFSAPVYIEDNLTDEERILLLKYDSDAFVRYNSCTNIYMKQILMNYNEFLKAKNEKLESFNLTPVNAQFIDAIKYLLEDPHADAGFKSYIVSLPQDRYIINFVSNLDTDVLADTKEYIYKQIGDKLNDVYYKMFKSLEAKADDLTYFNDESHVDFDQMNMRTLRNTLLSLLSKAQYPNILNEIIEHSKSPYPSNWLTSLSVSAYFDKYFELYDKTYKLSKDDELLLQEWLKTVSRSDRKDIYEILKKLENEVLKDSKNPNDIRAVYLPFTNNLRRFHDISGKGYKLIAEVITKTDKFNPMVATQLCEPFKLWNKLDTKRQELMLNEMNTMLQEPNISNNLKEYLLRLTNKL
Calls of active or inactive are those of the source.
measurement-name: IC50

Solved entries (count: 3):
>  <molecule>
N#Cc1c(-c2ccccc2)nc(SCC(=O)N(c2ccccc2)c2ccccc2)[nH]c1=O

>  <measurement-name>
IC50

>  <result>
34.3 µM (active)

$$$$
>  <molecule>
COc1cc(/C=C2\SC(=S)N(NS(=O)(=O)c3ccccc3)C2=O)ccc1O

>  <measurement-name>
IC50

>  <result>
24.5 µM (active)

$$$$
>  <molecule>
Cc1cc([N+](=O)[O-])cc(/C=N\NC(=O)C2COc3ccccc3O2)c1O (stereo not given)

>  <measurement-name>
IC50

>  <result>
3.05 µM (active)

$$$$

From here, focus on the item given below.
Query string: Report IC50 for O=c1oc2c(CN3CCOCC3)c(O)c(Cl)cc2c2c1CCCC2
Result string: 32.2 µM (active)

====

Target: Calpain-2 catalytic subunit (Sus scrofa)
Sequence (P43367 whole entry): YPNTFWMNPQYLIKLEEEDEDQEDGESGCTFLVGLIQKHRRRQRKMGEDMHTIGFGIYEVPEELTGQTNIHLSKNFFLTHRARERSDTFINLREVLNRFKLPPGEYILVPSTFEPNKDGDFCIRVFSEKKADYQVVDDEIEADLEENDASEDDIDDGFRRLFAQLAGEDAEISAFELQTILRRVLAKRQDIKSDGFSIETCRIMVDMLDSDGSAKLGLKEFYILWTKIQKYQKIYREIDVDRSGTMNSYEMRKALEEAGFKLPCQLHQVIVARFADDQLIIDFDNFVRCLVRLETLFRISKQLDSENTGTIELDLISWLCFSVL
Assay: m-calpain protease blockers, concentration series – biochemical, fluorogenic peptide substrate, dose response (AID 1420)
Type: functional
The source made the active and inactive calls.
IC50 for assorted compounds

Solved entries (count: 6):
>  <compound>
OC(CNCc1ccc(Cl)cc1)(c1ccccc1)c1ccc(F)cc1 (stereo unspecified)

>  <IC50>
12.1 µM (not active)

$$$$
>  <compound>
Cc1ccc(CNC(=O)CCCCCNc2nc(S)nc3ccccc23)cc1

>  <IC50>
24.8 µM (not active)

$$$$
>  <compound>
CN(C)C(CNC(C(=O)Nc1ccc([N+](=O)[O-])cc1Br)c1ccccc1)c1ccccc1 (stereo unspecified)

>  <IC50>
4.94 µM (not active)

$$$$
>  <compound>
CC(C)Cn1c(N)c(C(=O)COC(=O)CC23CC4CC(CC(C4)C2)C3)c(=O)n(C)c1=O

>  <IC50>
5.92 µM (not active)

$$$$
>  <compound>
O=C1C2CCCCC2C(=O)N1c1ccc(NC2CCCCC2)c([N+](=O)[O-])c1 (stereo unspecified)

>  <IC50>
4.65 µM (active)

$$$$
>  <compound>
O=C(CCn1c(=O)[nH]c2ccsc2c1=O)NCc1ccc(F)cc1

>  <IC50>
< 0.4 µM (not active)

$$$$

Query string: Report IC50 for Nc1c(Cl)cc2c(c1Oc1ccccc1)C(=O)c1ccccc1C2=O
Result string: 2.46 µM (not active)

Query string: Report IC50 for CCOCCCNC(=O)C1CCC(CNS(=O)(=O)c2ccc(Cl)cc2)CC1 (stereo unspecified)
Result string: > 50 µM (not active)

Query string: Report IC50 for CCCOC(=O)Nc1cc(OC)ccc1[N+](=O)[O-]
Result string: 8.71 µM (not active)

Query string: Report IC50 for COc1cnc(SCc2c(Cl)cccc2Cl)nc1Cl
Result string: < 0.4 µM (not active)

Query string: Report IC50 for Cc1ccc(-c2nc(N)sc2-c2ccc(C)cc2)cc1
Result string: 3.19 µM (not active)

====

target: Ubiquitin-conjugating enzyme E2 N (Homo sapiens); type: functional;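 note: Dose-response confirmation in a TR-FRET assay detecting UBC13-driven polyubiquitin chain formation, inhibition measured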
Sequence (P61088 whole entry): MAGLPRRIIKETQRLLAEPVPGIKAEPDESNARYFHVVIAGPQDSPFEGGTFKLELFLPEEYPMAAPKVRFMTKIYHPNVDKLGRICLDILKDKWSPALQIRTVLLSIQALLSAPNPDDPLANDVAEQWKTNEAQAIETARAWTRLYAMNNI
Active and inactive are the calls of the source.
Respond with a class label; see yes (1) (active), no (0) (inactive)

// below: answered compounds
>  <compound>
O=C(NCC1CCN(Cc2ccc(F)cc2)CC1)C1CCCN(c2ncnc3c2nc2n3CCCCC2)C1 (configuration not stated)

>  <classification>
no (0)

$$$$
>  <compound>
C#CCOCCOCCOCCNc1nc(N2CCN(C(=O)[C@H](CCCCN)n3cc(CN)nn3)CC2)nc(N2CCN(C(=O)[C@H](CCCCN)n3cc([C@@H](N)[C@H](C)CC)nn3)CC2)n1

>  <classification>
yes (1)

$$$$
>  <compound>
COc1cccc2c1NC(C(=O)O)C1CC=CC21 (configuration not stated)

>  <classification>
yes (1)

$$$$

# ---- query compound ----
Query string: What did this assay record as the result for COc1cccc(NC(=O)CSc2nc3ccccc3c(=O)n2Cc2cccs2)c1 ?
Result string: yes (1)

====

AC50 data for Cytochrome P450 2C9 (Homo sapiens) follow.

Solved entries (count: 4):
>  <molecule>
O=C(Nc1ccc(Cl)c(C(F)(F)F)c1)C1CCCN(S(=O)(=O)c2c[nH]cn2)C1 (stereo not given)

>  <AC50>
0.501 µM (inconclusive)

$$$$
>  <molecule>
COc1ccc(NC(=O)c2ccc(C(=O)c3cc(OC)ccc3OC)cc2)cc1

>  <AC50>
22.4 µM (inconclusive)

$$$$
>  <molecule>
Fc1ccc([C@H]2CCNC[C@H]2COc2ccc3c(c2)OCO3)cc1

>  <AC50>
2 µM (inconclusive)

$$$$
>  <molecule>
COC(=O)c1nn(-c2ccccc2)c(-c2ccccc2)c1C(=O)c1ccccc1

>  <AC50>
15.8 µM (inconclusive)

$$$$

From here, focus on the item given below.
Query string: Tell me AC50 of O=C1c2ccc3c4c(ccc(c24)C(=O)N1c1ccc2ccccc2c1)CC3 when tested on Cytochrome P450 2C9 (Homo sapiens).
Sequence (P11712 whole entry): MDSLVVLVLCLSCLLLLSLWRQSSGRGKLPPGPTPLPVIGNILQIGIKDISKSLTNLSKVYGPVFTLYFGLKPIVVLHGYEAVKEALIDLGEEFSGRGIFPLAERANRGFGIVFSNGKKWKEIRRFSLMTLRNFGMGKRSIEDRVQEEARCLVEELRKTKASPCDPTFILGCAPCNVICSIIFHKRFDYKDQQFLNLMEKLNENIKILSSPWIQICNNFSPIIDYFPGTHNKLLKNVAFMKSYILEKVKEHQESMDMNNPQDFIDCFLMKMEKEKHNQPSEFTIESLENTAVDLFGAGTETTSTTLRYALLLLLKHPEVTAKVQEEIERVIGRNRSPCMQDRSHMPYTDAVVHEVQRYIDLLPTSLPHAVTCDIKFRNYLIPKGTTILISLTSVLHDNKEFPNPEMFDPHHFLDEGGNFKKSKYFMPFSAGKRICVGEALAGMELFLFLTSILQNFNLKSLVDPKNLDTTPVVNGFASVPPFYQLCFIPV
Result string: 3.98 µM (inconclusive)

Data credit: ChEMBL document CHEMBL1201862
